Quick list: pEC50 per entry.
Molecular target: TRPM8 (Homo sapiens)
Construct: purchased Eurofins (Cerep) item #3316
Test: TRPM8 Human Transient Potential Ion Channel Cell Based Agonist Calcium Flux Assay (Eurofins Cerep item #3316)
Conditions: room temperature
pEC50: −log10 of the molar value.

Some solved cases for reference:
{"Mol": "CC(C)[C@@H]1CC[C@@H](C)C[C@H]1C(=O)Nc1ccc(B2OC(C)(C)C(C)(C)O2)cn1", "pEC50": "> 5.70"}
{"Mol": "COC(=O)c1cc(NC(=O)[C@@H]2C[C@H](C)CC[C@H]2C(C)C)sn1", "pEC50": "> 6.30"}
{"Mol": "COCCN1CC(NC(=O)[C@@H]2C[C@H](C)CC[C@H]2C(C)C)C1", "pEC50": "> 6.00"}
{"Mol": "COC(=O)c1ccc(NC(=O)[C@@H]2C[C@H](C)CC[C@H]2C(C)C)cn1", "pEC50": "> 6.30"}
{"Mol": "CC(C)[C@@H]1CC[C@@H](C)C[C@H]1C(=O)NCCC#N", "pEC50": "> 5.00"}

Lab note: measured pEC50 of CC(C)[C@@H]1CC[C@@H](C)C[C@H]1C(=O)NC12CC(C(=O)O)(C1)C2 was < 5.00

Measured pEC50, CC(C)[C@@H]1CC[C@@H](C)C[C@H]1C(=O)Nc1ccc(CCO)cc1 : > 7.00

Record CC(C)[C@@H]1CC[C@@H](C)C[C@H]1C(=O)Nc1cc(C(=O)O)ns1 . Reported pEC50: < 5.00

---

Biological target: TRPM8 (Homo sapiens, UniProt Q7Z2W7)
Construct: purchased Eurofins (Cerep) item #3316
Sequence (Q7Z2W7 whole entry): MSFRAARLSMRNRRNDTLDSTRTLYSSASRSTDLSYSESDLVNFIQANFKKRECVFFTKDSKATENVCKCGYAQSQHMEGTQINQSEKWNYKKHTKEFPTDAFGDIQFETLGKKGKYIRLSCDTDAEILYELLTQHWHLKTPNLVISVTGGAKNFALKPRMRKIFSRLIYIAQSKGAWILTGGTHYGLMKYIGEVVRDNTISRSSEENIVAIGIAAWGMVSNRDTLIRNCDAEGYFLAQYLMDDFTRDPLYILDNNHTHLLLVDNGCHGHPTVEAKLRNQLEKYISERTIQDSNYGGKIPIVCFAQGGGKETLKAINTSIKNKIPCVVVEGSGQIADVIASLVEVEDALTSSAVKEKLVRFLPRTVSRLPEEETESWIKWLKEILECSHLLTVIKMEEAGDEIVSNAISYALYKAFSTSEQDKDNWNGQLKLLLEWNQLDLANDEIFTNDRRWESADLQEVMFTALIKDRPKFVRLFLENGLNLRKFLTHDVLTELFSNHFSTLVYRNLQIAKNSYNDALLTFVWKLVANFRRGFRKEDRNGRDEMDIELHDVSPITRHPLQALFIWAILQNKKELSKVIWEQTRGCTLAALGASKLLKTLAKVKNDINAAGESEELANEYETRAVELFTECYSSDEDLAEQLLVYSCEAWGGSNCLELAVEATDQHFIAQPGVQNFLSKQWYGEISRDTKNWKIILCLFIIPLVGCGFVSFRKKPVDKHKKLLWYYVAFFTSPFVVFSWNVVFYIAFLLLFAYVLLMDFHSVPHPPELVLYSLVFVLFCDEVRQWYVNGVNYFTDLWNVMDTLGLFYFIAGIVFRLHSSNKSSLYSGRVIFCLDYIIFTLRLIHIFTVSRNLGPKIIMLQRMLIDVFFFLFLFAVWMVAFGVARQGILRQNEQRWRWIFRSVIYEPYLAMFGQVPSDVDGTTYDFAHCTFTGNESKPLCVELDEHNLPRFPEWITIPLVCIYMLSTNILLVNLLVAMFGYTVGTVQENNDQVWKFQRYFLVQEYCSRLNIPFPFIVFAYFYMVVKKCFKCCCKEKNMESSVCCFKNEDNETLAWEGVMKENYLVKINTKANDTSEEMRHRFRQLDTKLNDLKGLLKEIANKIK
Assay: TRPM8 Human Transient Potential Ion Channel Cell Based Agonist Calcium Flux Assay (Eurofins Cerep item #3316)
Details: room temperature, no unit printed in this row
pEC50: −log10 of the molar value.
Readout Label: pEC50

Per the record, CC(C)[C@@H]1CC[C@@H](C)C[C@H]1C(=O)NC(=N)N has pEC50 of > 5.00

---

Target: TRPM8 (Homo sapiens, UniProt Q7Z2W7)
Construct: purchased Eurofins (Cerep) item #3316
Assay: TRPM8 Human Transient Potential Ion Channel Cell Based Agonist Calcium Flux Assay (Eurofins Cerep item #3316)
Details: control activator ligand icilin, read-out: Percent Agonist
Readout Label: Emax

Some solved cases for reference:
{"Mol": "COc1ncc(NC(=O)[C@@H]2C[C@H](C)CC[C@H]2C(C)C)cc1C", "Study System": "TRPM8 (Homo sapiens, UniProt Q7Z2W7)", "Emax": "> 35%"}
{"Mol": "CC(C)[C@@H]1CC[C@@H](C)C[C@H]1C(=O)N[C@H]1CC[C@H](N)C1", "Study System": "TRPM8 (Homo sapiens, UniProt Q7Z2W7)", "Emax": "> 75%"}
{"Mol": "COC(=O)C12CC(NC(=O)[C@@H]3C[C@H](C)CC[C@H]3C(C)C)(C1)C2", "Study System": "TRPM8 (Homo sapiens, UniProt Q7Z2W7)", "Emax": "> 75%"}

Measured Emax, CC(C)[C@@H]1CC[C@@H](C)C[C@H]1C(=O)NN1CCOCC1 : > 35%

Emax recorded for this compound, CC(C)[C@@H]1CC[C@@H](C)C[C@H]1C(=O)Nc1ccc(Cl)cn1 , is > 100%

Emax measured on COC(=O)NC12CC(NC(=O)[C@@H]3C[C@H](C)CC[C@H]3C(C)C)(C1)C2 = > 100%

Note to self: Emax recorded for C#CCNC(=O)[C@@H]1C[C@H](C)CC[C@H]1C(C)C was > 75%

The reported value for CC(C)[C@@H]1CC[C@@H](C)C[C@H]1C(=O)Nc1ccc(CO)cc1 in terms of Emax is > 75%

---

Target: TRPM8 (Homo sapiens)
Construct: purchased Eurofins (Cerep) item #3316
Assay: TRPM8 Human Transient Potential Ion Channel Cell Based Agonist Calcium Flux Assay (Eurofins Cerep item #3316)
Conditions: control activator ligand icilin, read-out: Percent Agonist
Readout Label: Emax

{"Compound": "CC(C)[C@@H]1CC[C@@H](C)C[C@H]1C(=O)NC1CC2(COC2)C1 [Compound 32]", "Emax": "> 75%"}

Now consider a different compound.
Notebook: CC(C)[C@@H]1CC[C@@H](C)C[C@H]1C(=O)Nc1cncc(Cl)c1 [Compound 80] , Emax read as > 75%

---

Target: TRPM8 (Homo sapiens, UniProt Q7Z2W7)
Construct: purchased Eurofins (Cerep) item #3316
Assay: TRPM8 Human Transient Potential Ion Channel Cell Based Agonist Calcium Flux Assay (Eurofins Cerep item #3316)
Conditions: control activator ligand icilin, read-out: Percent Agonist
Readout Label: Emax

In the examples that follow, each entry is paired with its recorded Emax.
{"Mol": "CC(C)[C@@H]1CC[C@@H](C)C[C@H]1C(=O)Nc1ccccc1CCN", "Study System": "TRPM8 (Homo sapiens, UniProt Q7Z2W7)", "Emax": "> 75%"}
{"Mol": "COCC12CC(NC(=O)[C@@H]3C[C@H](C)CC[C@H]3C(C)C)(C1)C2", "Study System": "TRPM8 (Homo sapiens, UniProt Q7Z2W7)", "Emax": "> 75%"}
{"Mol": "CO[C@H]1CC[C@H](NC(=O)[C@@H]2C[C@H](C)CC[C@H]2C(C)C)CC1", "Study System": "TRPM8 (Homo sapiens, UniProt Q7Z2W7)", "Emax": "> 100%"}

molecule CC(C)[C@@H]1CC[C@@H](C)C[C@H]1C(=O)Nc1ccc(OCCN2CCCC2)cc1 , Emax observed: > 75%

# molecule CC(C)[C@@H]1CC[C@@H](C)C[C@H]1C(=O)Nc1ccc(N2CCOCC2)nc1 ; its Emax = > 50%

The value of Emax measured for the molecule COC12CC(NC(=O)[C@@H]3C[C@H](C)CC[C@H]3C(C)C)(C1)C2 turned out to be > 75%

According to the records, this molecule CC(C)[C@@H]1CC[C@@H](C)C[C@H]1C(=O)NC12CCC(C(F)(F)F)(CC1)C2 displays Emax of > 75%

Emax for CC(C)[C@@H]1CC[C@@H](C)C[C@H]1C(=O)Nc1ccnc(CN(C)C)c1 is > 50%

---

Target: TRPM8 (Homo sapiens, UniProt Q7Z2W7)
Construct: purchased Eurofins (Cerep) item #3316
Assay: TRPM8 Human Transient Potential Ion Channel Cell Based Agonist Calcium Flux Assay (Eurofins Cerep item #3316)
Settings: room temperature
Here the recorded EC50 is given for each entry.

Known results for compounds:
{"Compound": "CC(C)[C@@H]1CC[C@@H](C)C[C@H]1C(=O)N[C@@H]1CCC(F)(F)C1", "EC50": "< 0.5 µM"}
{"Compound": "CC(C)[C@@H]1CC[C@@H](C)C[C@H]1C(=O)NC1CC2C(C1)C2(F)F (some centres unmarked) [102 or 92]", "EC50": "< 0.5 µM"}

The compound identified as COc1ncc(NC(=O)[C@@H]2C[C@H](C)CC[C@H]2C(C)C)cc1F registered its EC50 at < 0.5 µM

Summary for this compound, COC12CCC(NC(=O)c3cc(Cl)ccc3C(C)C)(CC1)CC2 : EC50 is < 3 µM

// EC50 value for CC(C)[C@@H]1CC[C@@H](C)C[C@H]1C(=O)NCC1(C#N)CC1 : < 10 µM

Query COC(=O)c1cc(NC(=O)[C@@H]2C[C@H](C)CC[C@H]2C(C)C)ccn1 yields EC50 of < 5 µM

Sure, the documented EC50 for CC(C)[C@@H]1CC[C@@H](C)C[C@H]1C(=O)Nc1ccc(OCCN(C)C)cc1 is < 0.5 µM

Consider CC(C)[C@@H]1CC[C@@H](C)C[C@H]1C(=O)NCC1COC1 . Its measured EC50 is < 10 µM

Memo: COC12CCC(NC(=O)[C@H]3CCC[C@@H](NC(C)=O)C3)(CC1)CC2 , reported EC50: > 10 µM

Reported EC50 of CC(C)[C@@H]1CC[C@@H](C)C[C@H]1C(=O)Nc1cnn(CCO)c1 : < 1 µM

---

Emax listing for selected compounds.
Biological target: TRPM8 (Homo sapiens)
Construct: purchased Eurofins (Cerep) item #3316
Assay: TRPM8 Human Transient Potential Ion Channel Cell Based Agonist Calcium Flux Assay (Eurofins Cerep item #3316)
Settings: control activator ligand icilin, read-out: Percent Agonist

Below are worked cases with known answers.
{"Compound": "CC(C)[C@@H]1CC[C@@H](C)C[C@H]1C(=O)Nc1ccc(C2(CCO)COC2)cc1 [Compound 20]", "Result": "> 100%"}
{"Compound": "COC(=O)Cn1cc(NC(=O)[C@@H]2C[C@H](C)CC[C@H]2C(C)C)cn1 [Compound 68]", "Result": "> 75%"}
{"Compound": "COC12CCC(NC(=O)[C@@H]3C[C@H](C)CC[C@H]3C(C)C)(CC1)CC2 [Compound 55]", "Result": "> 75%"}

Now consider the entry below.
Let me check: CC(C)[C@@H]1CC[C@@H](C)C[C@H]1C(=O)NC1CCS(=O)(=O)CC1 [Compound 36] , system TRPM8 (Homo sapiens), measured Emax is > 75%
